Each recorded value in this set is attributed to PubChem BioAssay AID1189.

# Method summary: DSSTox (CPDBAS) Carcinogenic Potency Database Summary SingleCellCall Results
# Protocol conditions: animal chronic carcinogenicity bioassays, CPDB summary call
Active and inactive are the calls of the source.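 The calls were made as follows: active = a tumor-causing dose value with its tumor site reported for any sex and species group of a rodent or other animal cancer study; inconclusive = only studies judged inadequate by the national testing program; inactive = tested in at least one study, none positive.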
Give one outcome, nothing more. List: True (active), False (inactive)

Inquiry: What was the test verdict on `Nc1cc([N+](=O)[O-])ccc1O` ?
Reply text: True

Inquiry: What was the test verdict on CN1C(=O)C(O)N=C(c2ccccc2)c2cc(Cl)ccc21 (configuration not stated) ?
Reply text: False

Inquiry: What was the test verdict on `COc1ccccc1[N+](=O)[O-]` ?
Reply text: True

Inquiry: What was the test verdict on `Cc1cccc(C)c1NC1=NCCCS1` ?
Reply text: False

Inquiry: What was the test verdict on O=C(NCC1CCCCN1)c1cc(OCC(F)(F)F)ccc1OCC(F)(F)F (configuration not stated) ?
Reply text: False

Inquiry: What was the test verdict on `Nc1cc(Cl)c(N)c(Cl)c1` ?
Reply text: True

Inquiry: What was the test verdict on Clc1ccc(C(c2ccccc2Cl)C(Cl)Cl)cc1 (configuration not stated) ?
Reply text: False

Inquiry: What was the test verdict on `N#CN=C(N)N` ?
Reply text: False

Inquiry: What was the test verdict on `C/C=N/N(C)C=O` ?
Reply text: True

Inquiry: What was the test verdict on `O=S1(=O)OCCO1` ?
Reply text: False

Inquiry: What was the test verdict on `CCN(Cc1cccc(S(=O)(=O)O)c1)c1ccc(C(=C2C=CC(=[N+](CC)Cc3cccc(S(=O)(=O)[O-])c3)C=C2)c2ccccc2)cc1` ?
Reply text: True

Inquiry: What was the test verdict on `O=S(=O)(O)c1ccc(N=Nc2c(O)ccc3cc(S(=O)(=O)O)ccc23)cc1` ?
Reply text: False

Inquiry: What was the test verdict on `Cc1cc(=O)[nH]c(=S)[nH]1` ?
Reply text: True

Inquiry: What was the test verdict on `ClC(Cl)(Cl)Cl` ?
Reply text: True

Inquiry: What was the test verdict on CN(C)C(=O)NC1CC2CC1C1CCCC21 (configuration not stated) ?
Reply text: False

Inquiry: What was the test verdict on `O=[N+]([O-])c1ccc(-c2cnc3ccccn23)o1` ?
Reply text: True

Inquiry: What was the test verdict on `CNC(=S)N(C)C` ?
Reply text: True

Inquiry: What was the test verdict on `C#C[C@]1(O)CC[C@H]2[C@@H]3CCc4cc(O)ccc4[C@H]3CC[C@@]21C` ?
Reply text: True

Inquiry: What was the test verdict on `N[C@@H](Cc1ccc(N(CCCl)CCCl)cc1)C(=O)O` ?
Reply text: True

Inquiry: What was the test verdict on `NC(=O)Cc1c([O-])on[n+]1Cc1ccccc1` ?
Reply text: True

Inquiry: What was the test verdict on `C/C(=C(\CCOC(=O)c1ccccc1)SC(=O)c1ccccc1)N(C=O)Cc1cnc(C)nc1N` ?
Reply text: False

Inquiry: What was the test verdict on `Cc1cc(C)nc(-c2ccc([N+](=O)[O-])o2)n1` ?
Reply text: True

Inquiry: What was the test verdict on `N#Cc1c(Cl)c(Cl)c(Cl)c(C#N)c1Cl` ?
Reply text: True

Inquiry: What was the test verdict on `Cc1ccc(C)c(C)c1` ?
Reply text: True

Inquiry: What was the test verdict on `CN(C)CCN(Cc1ccsc1)c1ccccn1` ?
Reply text: False

Inquiry: What was the test verdict on CC(C(O)c1ccccc1)N(C)N=O (configuration not stated) ?
Reply text: True

Inquiry: What was the test verdict on `CC(C)(OCc1ccc(-c2ccc(Cl)cc2)cc1)C(=O)O` ?
Reply text: True

###

# Method summary: DSSTox (CPDBAS) Carcinogenic Potency Database Summary SingleCellCall Results
# Protocol conditions: animal chronic carcinogenicity bioassays, CPDB summary call
Activity calls are given as the source filed them.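 The calls were made as follows: active = a tumor-causing dose value with its tumor site reported for any sex and species group of a rodent or other animal cancer study; inconclusive = only studies judged inadequate by the national testing program; inactive = tested in at least one study, none positive.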
Give one outcome, nothing more. List: active, inactive

Inquiry: What was the test verdict on `O=NN1CCCCC1` ?
Reply text: active

Inquiry: What was the test verdict on `CN(C)[C@@H]1C(=O)C(C(N)=O)=C(O)[C@@]2(O)C(=O)C3=C(O)c4c(O)cccc4[C@@](C)(O)[C@H]3C[C@@H]12` ?
Reply text: inactive

Inquiry: What was the test verdict on `CCCN(N=O)C(N)=O` ?
Reply text: active

Inquiry: What was the test verdict on `CN(C)/N=N/c1nc[nH]c1C(N)=O` ?
Reply text: active

Inquiry: What was the test verdict on `Oc1ccccc1O` ?
Reply text: active

Inquiry: What was the test verdict on `Cc1ccc(N=Nc2c(O)ccc3ccccc23)c([N+](=O)[O-])c1` ?
Reply text: active

Inquiry: What was the test verdict on `[Na+]` ?
Reply text: inactive

Inquiry: What was the test verdict on `CC(=O)Nc1ccc(N=Nc2cc(C)ccc2O)cc1` ?
Reply text: active

Inquiry: What was the test verdict on `COc1ccccc1N1CCN(CCCNc2cc(=O)n(C)c(=O)n2C)CC1` ?
Reply text: inactive

Inquiry: What was the test verdict on CCCCC(C)(O)C/C=C/[C@H]1[C@H](O)CC(=O)[C@@H]1CCCCCCC(=O)OC (some centres not stated) ?
Reply text: inactive

Inquiry: What was the test verdict on `CC(C)OC(=O)COc1ccc(Cl)cc1Cl` ?
Reply text: inactive

Inquiry: What was the test verdict on O=C1C=C2C(=CCOC2O)O1 (configuration not stated) ?
Reply text: inactive

Inquiry: What was the test verdict on CC1CN(N=O)CC(C)N1C (configuration not stated) ?
Reply text: active

Inquiry: What was the test verdict on CC(O)C(=O)O (configuration not stated) ?
Reply text: inactive

Inquiry: What was the test verdict on `OCC(CO)(CBr)CBr` ?
Reply text: active

Inquiry: What was the test verdict on `OCc1ccccc1` ?
Reply text: inactive

Inquiry: What was the test verdict on `O=c1[nH]cc(F)c(=O)[nH]1` ?
Reply text: active

Inquiry: What was the test verdict on CC1CN(N=O)CC(C)O1 (configuration not stated) ?
Reply text: active

Inquiry: What was the test verdict on `O=C1c2ccccc2CN2C(=O)c3ccccc3CN12` ?
Reply text: active

Inquiry: What was the test verdict on C=CCOc1ccccc1OCC(O)CNC(C)C (configuration not stated) ?
Reply text: inactive

Inquiry: What was the test verdict on `CCCCCc1cc(O)c2c(c1)OC(C)(C)[C@@H]1CCC(C)=C[C@@H]21` ?
Reply text: inactive

Inquiry: What was the test verdict on `ClCc1cccnc1` ?
Reply text: active

Inquiry: What was the test verdict on `O=S(=O)(O)c1c(N=Nc2c(O)ccc3ccccc23)ccc2ccccc12` ?
Reply text: inactive

Inquiry: What was the test verdict on `OC[C@H]1O[C@@](CO)(O[C@H]2O[C@H](CO)[C@@H](O)[C@H](O)[C@H]2O)[C@@H](O)[C@@H]1O` ?
Reply text: inactive

Inquiry: What was the test verdict on `O=[Se]=O` ?
Reply text: inactive

Inquiry: What was the test verdict on `CCN(CC(F)(F)F)N=O` ?
Reply text: active

Inquiry: What was the test verdict on CCC(O)OC(O)CC (configuration not stated) ?
Reply text: inactive

Inquiry: What was the test verdict on COC1[C@@H](O[C@@H]2O[C@H](C)[C@@H](O[C@H]3C[C@@](C)(O)[C@H](OC(=O)CC(C)C)[C@H](C)O3)[C@H](N(C)C)[C@H]2O)[C@@H](CC=O)C[C@@H](C)[C@@H](O)/C=C/C=C/C[C@@H](C)OC(=O)C[C@H]1OC(C)=O (some centres not stated) ?
Reply text: inactive

Inquiry: What was the test verdict on O=C(C1CCCCC1)N1CC(=O)N2CCc3ccccc3C2C1 (configuration not stated) ?
Reply text: inactive

Inquiry: What was the test verdict on `O=NN1CN2CN(C1)CN(N=O)C2` ?
Reply text: inactive

Inquiry: What was the test verdict on `Nc1c(F)c(N)c(F)c(F)c1F` ?
Reply text: active

Inquiry: What was the test verdict on `CCN=c1cc2oc3cc(NCC)c(C)cc3c(-c3ccccc3C(=O)OCC)c-2cc1C` ?
Reply text: inactive

Inquiry: What was the test verdict on C/C=C/C(=O)Oc1c(C(C)CCCCCC)cc([N+](=O)[O-])cc1[N+](=O)[O-] (configuration not stated) ?
Reply text: inactive

Inquiry: What was the test verdict on `O=C1O[C@H]([C@@H](O)CO)C(O)=C1O` ?
Reply text: inactive

Inquiry: What was the test verdict on `CC(C)(C)c1cc(C(C)(C)C)c(O)c(C(C)(C)C)c1` ?
Reply text: inactive

Inquiry: What was the test verdict on `O=C1CN=C(c2ccccc2)c2cc(Cl)ccc2N1CC1CC1` ?
Reply text: inactive

Inquiry: What was the test verdict on `CC(=O)CN(N=O)C(N)=O` ?
Reply text: active

Inquiry: What was the test verdict on `CN1C(C(=O)Nc2ccccn2)=C(O)c2sc(Cl)cc2S1(=O)=O` ?
Reply text: inactive

Inquiry: What was the test verdict on O=NN1CCCCC1c1cccnc1 (configuration not stated) ?
Reply text: active

Inquiry: What was the test verdict on `N[C@@H](CS)C(=O)O` ?
Reply text: inactive

Inquiry: What was the test verdict on `CCCC(CCC)C(=O)O` ?
Reply text: active

Inquiry: What was the test verdict on O=P1(NCCCl)OCCCN1CCCl (configuration not stated) ?
Reply text: active

Inquiry: What was the test verdict on CN1C2CC[C@@H]1CC(NC(=O)c1cc(Cl)cc3c1OC(C)(C)C3)C2 (some centres not stated) ?
Reply text: inactive

Inquiry: What was the test verdict on CC(O)CN(C)N=O (configuration not stated) ?
Reply text: active

Inquiry: What was the test verdict on `Nc1cc(S(=O)(=O)O)cc2cc(S(=O)(=O)O)c(N=Nc3ccc(-c4ccc(N=Nc5c(S(=O)(=O)O)cc6cc(S(=O)(=O)O)cc(N)c6c5O)cc4)cc3)c(O)c12` ?
Reply text: active

Inquiry: What was the test verdict on `Cc1ccc2cc3c(ccc4ccccc43)c3c2c1CC3` ?
Reply text: active

Inquiry: What was the test verdict on `NC(=O)N(CCO)N=O` ?
Reply text: active

Inquiry: What was the test verdict on `C/C=C/C=C/C=O` ?
Reply text: active

Inquiry: What was the test verdict on `O=P(O)(O)O` ?
Reply text: inactive

Inquiry: What was the test verdict on `CN(C)C(=S)S[Se](SC(=S)N(C)C)(SC(=S)N(C)C)SC(=S)N(C)C` ?
Reply text: inactive

Inquiry: What was the test verdict on CC(=O)CN(CC(O)CO)N=O (configuration not stated) ?
Reply text: active

Inquiry: What was the test verdict on `Nc1ccc(Oc2ccc(N)cc2)cc1` ?
Reply text: active
